Each record here notes measured relative viability.
System: NCI-H1299
Test: relative viability (nuclei count vs DMSO), 5 days (fraction); higher = more cells survive
Settings: first compound 0.1581 µM

// known answers, use as guide
compound	result
Nc1ccn([C@@H]2O[C@H](CO)[C@@H](O)[C@@H]2O)c(=O)n1 [Cytarabine] + C[C@]1(O)C[C@@H](c2nc(-c3ccc4ccc(-c5ccccc5)nc4c3)c3c(N)nccn32)C1 [Linsitinib] (partner 1 µM)	1.05
COc1cc2nccc(Oc3ccc(NC(=O)Nc4cc(C)on4)c(Cl)c3)c2cc1OC [Tivozanib] + CS(=O)(=O)CCNCc1ccc(-c2ccc3ncnc(Nc4ccc(OCc5cccc(F)c5)c(Cl)c4)c3c2)o1 [Lapatinib] (partner 2 µM)	0.936
COc1cc2nccc(Oc3ccc(NC(=O)Nc4cc(C)on4)c(Cl)c3)c2cc1OC [Tivozanib] + CC1(C)CCC(c2ccc(Cl)cc2)=C(CN2CCN(c3ccc(C(=O)NS(=O)(=O)c4ccc(N[C@H](CCN5CCOCC5)CSc5ccccc5)c(S(=O)(=O)C(F)(F)F)c4)cc3)CC2)C1 [Navitoclax] (partner 0.5 µM)	1.05

For the next question, use this compound.
Lookup: Entry under review: COc1cc2nccc(Oc3ccc(NC(=O)Nc4cc(C)on4)c(Cl)c3)c2cc1OC [Tivozanib] + C[C@@H](Oc1cc(-c2cnn(C3CCNCC3)c2)cnc1N)c1c(Cl)ccc(F)c1Cl [Crizotinib] (partner 1 µM) . Reported relative viability?
Found: 0.991

----------
System: NCI-H322M
Assay: relative viability (nuclei count vs DMSO), 5 days (fraction); higher = more cells survive
Details: first compound 0.5 µM
Class (by relative viability) -- group 1: < 0.4; group 2: ≥ 0.4 and < 0.5; group 3: ≥ 0.5

For orientation, consider the following solved cases.
molecule	answer-label
COc1cc2nccc(Oc3ccc(NC(=O)Nc4cc(C)on4)c(Cl)c3)c2cc1OC [Tivozanib] + COc1cccc2cc(-c3nc([C@H]4CC[C@H](C(=O)O)CC4)n4ncnc(N)c34)[nH]c12 [OSI-027] (partner 0.5 µM)	group 2
Nc1ccn([C@@H]2O[C@H](CO)[C@@H](O)[C@@H]2O)c(=O)n1 [Cytarabine] + NC(=O)Nc1cc(-c2cccc(F)c2)sc1C(=O)N[C@H]1CCCNC1 [AZD7762] (partner 0.2 µM)	group 1
COc1cc2nccc(Oc3ccc(NC(=O)Nc4cc(C)on4)c(Cl)c3)c2cc1OC [Tivozanib] + C[C@@H](Oc1cc(-c2cnn(C3CCNCC3)c2)cnc1N)c1c(Cl)ccc(F)c1Cl [Crizotinib] (partner 1 µM)	group 3
COc1cc2nccc(Oc3ccc(NC(=O)Nc4cc(C)on4)c(Cl)c3)c2cc1OC [Tivozanib] + COc1cc2c(Oc3ccc(NC(=O)C4(C(=O)Nc5ccc(F)cc5)CC4)cc3F)ccnc2cc1OCCCN1CCOCC1 [Foretinib] (partner 0.25 µM)	group 3
COc1cc2nccc(Oc3ccc(NC(=O)Nc4cc(C)on4)c(Cl)c3)c2cc1OC [Tivozanib] + CC(C)C[C@H](NC(=O)[C@H](Cc1ccccc1)NC(=O)c1cnccn1)B(O)O [Bortezomib] (partner 0.002 µM)	group 3
Nc1ccn([C@@H]2O[C@H](CO)[C@@H](O)[C@@H]2O)c(=O)n1 [Cytarabine] + Nc1ncn([C@H]2C[C@H](O)[C@@H](CO)O2)c(=O)n1 [Decitabine] (partner 2 µM)	group 2
Nc1ccn([C@@H]2O[C@H](CO)[C@@H](O)[C@@H]2O)c(=O)n1 [Cytarabine] + C[C@]1(O)C[C@@H](c2nc(-c3ccc4ccc(-c5ccccc5)nc4c3)c3c(N)nccn32)C1 [Linsitinib] (partner 1 µM)	group 2
Nc1ccn([C@@H]2O[C@H](CO)[C@@H](O)[C@@H]2O)c(=O)n1 [Cytarabine] + CC(=O)c1c(C)c2cnc(Nc3ccc(N4CCNCC4)cn3)nc2n(C2CCCC2)c1=O [Palbociclib] (partner 0.5 µM)	group 1

Lookup: Assign a bin to Nc1ccn([C@@H]2O[C@H](CO)[C@@H](O)[C@@H]2O)c(=O)n1 [Cytarabine] + Nc1nc2[nH]cc(CCc3ccc(C(=O)N[C@@H](CCC(=O)O)C(=O)O)cc3)c2c(=O)[nH]1 [Pemetrexed] (partner 0.2 µM)
Found: group 1

Lookup: Categorize the following entry: Nc1ccn([C@@H]2O[C@H](CO)[C@@H](O)[C@@H]2O)c(=O)n1 [Cytarabine] + COc1cccc2cc(-c3nc([C@H]4CC[C@H](C(=O)O)CC4)n4ncnc(N)c34)[nH]c12 [OSI-027] (partner 0.5 µM)
Found: group 1

Lookup: For Nc1ccn([C@@H]2O[C@H](CO)[C@@H](O)[C@@H]2O)c(=O)n1 [Cytarabine] + O=C(CCCCCCC(=O)Nc1ccccc1)NO [Vorinostat] (partner 1 µM) , which relative viability bin applies?
Found: group 2

Lookup: Class label required: COc1cc2nccc(Oc3ccc(NC(=O)Nc4cc(C)on4)c(Cl)c3)c2cc1OC [Tivozanib] + O=C(CCCCCCC(=O)Nc1ccccc1)NO [Vorinostat] (partner 1 µM)
Found: group 3

----------
Parameter: relative viability. Scope: all listed entries.
System: NCI-H2087
Test: relative viability (nuclei count vs DMSO), 5 days (fraction); higher = more cells survive
Settings: first compound 0.1581 µM

compound	relative viability
COc1cc2nccc(Oc3ccc(NC(=O)Nc4cc(C)on4)c(Cl)c3)c2cc1OC [Tivozanib] + NC(=O)Nc1cc(-c2cccc(F)c2)sc1C(=O)N[C@H]1CCCNC1 [AZD7762] (partner 0.2 µM)	1.55
COc1cc2nccc(Oc3ccc(NC(=O)Nc4cc(C)on4)c(Cl)c3)c2cc1OC [Tivozanib] + CC(=O)Nc1cccc(-n2c(=O)n(C3CC3)c(=O)c3c(Nc4ccc(I)cc4F)n(C)c(=O)c(C)c32)c1 [Trametinib] (partner 0.02 µM)	0.166

Lookup: Request: relative viability, test system NCI-H2087, entry COc1cc2nccc(Oc3ccc(NC(=O)Nc4cc(C)on4)c(Cl)c3)c2cc1OC [Tivozanib] + CC1(C)CCC(c2ccc(Cl)cc2)=C(CN2CCN(c3ccc(C(=O)NS(=O)(=O)c4ccc(N[C@H](CCN5CCOCC5)CSc5ccccc5)c(S(=O)(=O)C(F)(F)F)c4)cc3)CC2)C1 [Navitoclax] (partner 0.5 µM)
Found: 0.917

----------
Tested on: NCI-H838
Experiment: relative viability (nuclei count vs DMSO), 5 days (fraction); higher = more cells survive
Conditions: first compound 5 µM
Reported relative viability values for a set of compounds
Answer using only a numeral; do not append any unit.

compound	measured-endpoint	measured-number
O=C(O)CCCCC(CCSCc1ccccc1)SCc1ccccc1 (stereo not given) [CPI-613] + Nc1nc2[nH]cc(CCc3ccc(C(=O)N[C@@H](CCC(=O)O)C(=O)O)cc3)c2c(=O)[nH]1 [Pemetrexed] (partner 0.2 µM)	relative viability	0.232
O=C(O)CCCCC(CCSCc1ccccc1)SCc1ccccc1 (stereo not given) [CPI-613] + CC(C)C[C@H](NC(=O)[C@H](Cc1ccccc1)NC(=O)c1cnccn1)B(O)O [Bortezomib] (partner 0.002 µM)	relative viability	0.867
O=C(O)CCCCC(CCSCc1ccccc1)SCc1ccccc1 (stereo not given) [CPI-613] + Nc1ncn([C@H]2C[C@H](O)[C@@H](CO)O2)c(=O)n1 [Decitabine] (partner 2 µM)	relative viability	0.449
O=C(O)CCCCC(CCSCc1ccccc1)SCc1ccccc1 (stereo not given) [CPI-613] + CS(=O)(=O)N1CCN(Cc2cc3nc(-c4cccc5[nH]ncc45)nc(N4CCOCC4)c3s2)CC1 [Pictilisib] (partner 1 µM)	relative viability	0.483

Lookup: Query (compound): O=C(O)CCCCC(CCSCc1ccccc1)SCc1ccccc1 (stereo not given) [CPI-613] + CCNC(=O)c1noc(-c2cc(C(C)C)c(O)cc2O)c1-c1ccc(CN2CCOCC2)cc1 [Luminespib] (partner 0.01 µM) ; field requested: relative viability
Found: 0.249

----------
Tested on: NCI-H838
Experiment: relative viability (nuclei count vs DMSO), 5 days (fraction); higher = more cells survive
Details: first compound 4 µM
measured-endpoint: relative viability
Reply with the value as a number alone.

compound	relative viability
Cc1sc2c(c1C)C(c1ccc(Cl)cc1)=N[C@@H](CC(=O)OC(C)(C)C)c1nnc(C)n1-2 [JQ1] + CC(=O)c1c(C)c2cnc(Nc3ccc(N4CCNCC4)cn3)nc2n(C2CCCC2)c1=O [Palbociclib] (partner 0.5 µM)	0.162

Here is another compound to look at.
Lookup: Using the record for Cc1sc2c(c1C)C(c1ccc(Cl)cc1)=N[C@@H](CC(=O)OC(C)(C)C)c1nnc(C)n1-2 [JQ1] + CCNC(=O)c1noc(-c2cc(C(C)C)c(O)cc2O)c1-c1ccc(CN2CCOCC2)cc1 [Luminespib] (partner 0.01 µM) , report its relative viability.
Found: 0.144

----------
Tested on: NCI-H2170
Experiment: relative viability (nuclei count vs DMSO), 5 days (fraction); higher = more cells survive
Conditions: first compound 0.253 µM
measured-endpoint: relative viability
Lab note: record just the number, no unit beside it.

Observe how each entry below is paired with its result.
molecule	relative viability
Cc1cnc(-c2cnc(NCCNc3ccc(C#N)cn3)nc2-c2ccc(Cl)cc2Cl)[nH]1 + Cc1nc(Nc2ncc(C(=O)Nc3c(C)cccc3Cl)s2)cc(N2CCN(CCO)CC2)n1 [Dasatinib] (partner 0.075 µM)	0.345
O=c1[nH]c2ccccc2n1C1CCN(CCCC(c2ccc(F)cc2)c2ccc(F)cc2)CC1 [Pimozide] + CC1(C)CCC(c2ccc(Cl)cc2)=C(CN2CCN(c3ccc(C(=O)NS(=O)(=O)c4ccc(N[C@H](CCN5CCOCC5)CSc5ccccc5)c(S(=O)(=O)C(F)(F)F)c4)cc3)CC2)C1 [Navitoclax] (partner 0.5 µM)	0.703
O=c1[nH]c2ccccc2n1C1CCN(CCCC(c2ccc(F)cc2)c2ccc(F)cc2)CC1 [Pimozide] + O=C(c1cc(Cc2n[nH]c(=O)c3ccccc23)ccc1F)N1CCN(C(=O)C2CC2)CC1 [Olaparib] (partner 8 µM)	0.554
O=c1[nH]c2ccccc2n1C1CCN(CCCC(c2ccc(F)cc2)c2ccc(F)cc2)CC1 [Pimozide] + CS(=O)(=O)N1CCN(Cc2cc3nc(-c4cccc5[nH]ncc45)nc(N4CCOCC4)c3s2)CC1 [Pictilisib] (partner 1 µM)	0.382
O=c1[nH]c2ccccc2n1C1CCN(CCCC(c2ccc(F)cc2)c2ccc(F)cc2)CC1 [Pimozide] + N=C(N)NC(=N)NCCc1ccccc1 [Phenformin] (partner 250 µM)	0.383

// moving on: another record for relative viability
Lookup: What value of measured relative viability is listed for O=c1[nH]c2ccccc2n1C1CCN(CCCC(c2ccc(F)cc2)c2ccc(F)cc2)CC1 [Pimozide] + Nc1ncn([C@H]2C[C@H](O)[C@@H](CO)O2)c(=O)n1 [Decitabine] (partner 2 µM) ?
Found: 0.453
